Entries annotated with measured inhibition
- TARGET UNDER TEST: Hexose transporter 1 (Plasmodium falciparum)
- ASSAY PROCEDURE: ST_JUDE_LEISH: Cytotoxicity at 2uM final concentration against transgenic Leishmania Mexicana promastigotes LmPfHT that are glucose transport deficient and complemented with the Plasmodium falciparum hexose transporter. Activity is measured by DNA content using SYBR green in vitro
- Type: functional
Answer with a number only, understood to be in %.

Observe how each entry below is paired with its result.
INSERT INTO measurements (compound, value) VALUES
  ('CC1(C)N=C(N)N=C(N)N1c1ccc(I)cc1', 5.57),
  ('COc1ccc2nccc([C@@H](O)CN3CCC(NCc4cc5cccc(O)c5[nH]4)CC3)c2c1', 2.02),
  ('CCCCN(Cc1cccc(C(F)(F)F)c1Cl)c1ccc(C(O)(C(F)(F)F)C(F)(F)F)cc1', 6.7);

Kindly state the measured inhibition obtained for "O=C(NC1CCN(Cc2ccccc2)CC1)c1cc(-c2ccncc2)c(-c2ccc(Cl)c(O)c2)o1" with Hexose transporter 1 (Plasmodium falciparum).
1.63

Test system Hexose transporter 1 (Plasmodium falciparum); read-out inhibition; what value for "COc1ccc(CNc2nccc3ccc(-c4ccc5nccn5c4)cc23)cc1" ?
0.03

Request body: readout inhibition, system Hexose transporter 1 (Plasmodium falciparum), query CN(C)c1ccc(-c2csc(C(=O)NCC3CCN(CCC(C)(C)C)C3)c2)cc1 (stereo unspecified) . Return the value.
-0.06

###

Reported inhibition values are given for each entry in this list.
- TARGET UNDER TEST: Glucose transporter (Leishmania mexicana)
- ASSAY PROCEDURE: ST_JUDE_LEISH: Cytotoxicity at 2uM final concentration against transgenic Leishmania Mexicana promastigotes LmGT2 that are glucose transport deficient and complemented with the L. Mexicana glucose transporter 2. Activity is measured by DNA content using SYBR green in vitro
- Type: functional
Output spec: scalar in %, unitless text.

Sample answers from the record:
INSERT INTO assay_data (compound, target_under_test, value) VALUES
  ('COc1ccc2nccc([C@@H](O)CN3CCC(NCc4ccc(OC)c(NC(C)=O)c4)CC3)c2c1', 'Glucose transporter (Leishmania mexicana)', -1.41),
  ('COc1cc(CN2CCC(CO)(Cc3cccc(C(F)(F)F)c3)CC2)c(Cl)cc1O', 'Glucose transporter (Leishmania mexicana)', -0.81);

Can you share its inhibition? I mean this compound: "Nc1ccc2nc(C=Cc3ccc(Cl)cc3)[nH]c2c1"
5.14

Look at this compound and give its reported inhibition. "Cc1cccc(NC(=O)NC2CCN(CCCCCNC(=O)/C=C/c3ccc(Cl)c(Cl)c3)CC2)c1"
3.5

Could you share which inhibition value was measured for "O=C(Nc1ccc(N2CCCN(Cc3cccc(F)c3)CC2)cc1)c1cccs1" ?
-3.03

Request the reported inhibition associated with "CN1CCN(c2ccnc3ccc(NC(=O)Nc4cccc5c(C#N)cccc45)cc23)CC1"
2.75

Look at this compound and give its reported inhibition. "COc1cc2c(cc1N1CCN(C)CC1)N(C(=O)Nc1ccc(-c3ccncc3)c(Cl)c1Cl)CC2"
0.64

Need inhibition of "CN(CCCN(C)c1cc(NC(=O)c2ccc(F)cc2)ccn1)Cc1cccc(F)c1" , thanks.
4.86

Could you tell me which inhibition is on file for CCCCNC(=O)C1CCCN(C(=O)c2ccc(O)c(-c3ccc(Cl)c(Cl)c3)c2)C1 (centres undefined) ?
0.69

Please report the recorded inhibition for CCC(C)NC(=O)Nc1ccc(-c2cccc(-c3nc4ccccc4[nH]3)c2)cc1 (centres undefined) .
5.49

###

Property: inhibition; scope: individual molecules
- TARGET UNDER TEST: Solute carrier family 2, facilitated glucose transporter member 1 (Homo sapiens) (UniProt P11166)
- Sequence (P11166 whole entry): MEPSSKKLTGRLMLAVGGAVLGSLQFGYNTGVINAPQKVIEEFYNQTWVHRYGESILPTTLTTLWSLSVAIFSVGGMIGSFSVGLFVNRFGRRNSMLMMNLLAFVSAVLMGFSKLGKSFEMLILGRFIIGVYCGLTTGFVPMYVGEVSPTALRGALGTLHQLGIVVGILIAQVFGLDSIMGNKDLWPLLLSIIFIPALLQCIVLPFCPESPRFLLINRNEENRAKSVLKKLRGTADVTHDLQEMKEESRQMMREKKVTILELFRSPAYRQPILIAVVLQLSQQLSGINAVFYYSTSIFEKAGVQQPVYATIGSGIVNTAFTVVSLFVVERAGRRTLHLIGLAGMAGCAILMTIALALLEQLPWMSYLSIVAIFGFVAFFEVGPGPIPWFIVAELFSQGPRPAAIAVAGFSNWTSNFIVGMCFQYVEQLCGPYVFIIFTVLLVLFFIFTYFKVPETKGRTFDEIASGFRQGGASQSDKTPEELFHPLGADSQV
- ASSAY PROCEDURE: ST_JUDE_LEISH: Cytotoxicity at 2uM final concentration against transgenic Leishmania Mexicana promastigotes LmGLUT1 that are glucose transport deficient and complemented with the human glucose transporter GLUT1. Activity is measured by DNA content using SYBR green in vitro
- Type: functional
Dear colleague, please return just the value in %, with no unit written.

Solved cases (5 shown):
INSERT INTO results (molecule, value) VALUES
  ('COc1ccccc1C1CN(CCNC(=O)c2nc(C)c[nH]2)Cc2ccccc2O1 (stereo unspecified)', 0.43),
  ('O=c1cc(NCCC(CNCCc2ccccc2)NCc2cc(Br)cc(Br)c2)[nH]c2ccccc12 (stereo unspecified)', -5.14),
  ('O=C(CCC1CCCCC1)NCCNc1cccc2ccccc12', -0.06),
  ('O=C(/C=C/c1ccc(Cl)c(Cl)c1)NCCCCCN1CCC(NC(=O)Nc2ccc(F)c(Cl)c2)CC1', 3.93),
  ('O=C(NC1CCC(CCN2Cc3cccc(F)c3C2)CC1)c1cccc(-c2cccnc2)c1 (stereo unspecified)', 0.7);

Can you look up the measured inhibition of "O=C(Nc1ccc(Cl)cc1)Nc1cccc(-c2cccc(-c3nc4ccccc4[nH]3)c2)c1" for me?
1.17

Would you kindly share the measured inhibition for CCCC1N=C(N)N=C(N)N1c1ccc(OC)cc1 (stereo unspecified) ?
1.53

Name the reported inhibition value associated with the molecule "CNC(=O)c1cc(Nc2nnc(-c3ccc(C)c(S(=O)(=O)NC4CCCCC4)c3)c3ccccc23)ccc1OC"
4

###

- TARGET UNDER TEST: Solute carrier family 2, facilitated glucose transporter member 1 (Homo sapiens)
- ASSAY PROCEDURE: ST_JUDE_LEISH: Cytotoxicity at 2uM final concentration against transgenic Leishmania Mexicana promastigotes LmGLUT1 that are glucose transport deficient and complemented with the human glucose transporter GLUT1. Activity is measured by DNA content using SYBR green in vitro
- Assay type: functional
ATTRIBUTE MEASURED: inhibition (%)
Answer with a number only, understood to be in %.

Example cases with answers are listed next.
INSERT INTO results (compound, target_under_test, attribute_measured, value) VALUES
  ('CN(C)CCOc1ccc2c(c1)OC(C)(C)C=C2c1cccc2ccccc12', 'Solute carrier family 2, facilitated glucose transporter member 1 (Homo sapiens)', 'inhibition', 4.01),
  ('Cc1cnc(Nc2cccc(CCN3CCOCC3)c2)nc1NC(C)C', 'Solute carrier family 2, facilitated glucose transporter member 1 (Homo sapiens)', 'inhibition', 9.35),
  ('CCCC/C=C(\Cl)c1ccc(O)c2c1C[C@H]1C[C@H]3[C@H](N(C)C)C(O)=C(C(N)=O)C(=O)[C@@]3(O)C(O)=C1C2=O', 'Solute carrier family 2, facilitated glucose transporter member 1 (Homo sapiens)', 'inhibition', -0.21),
  ('O=C(/C=C/c1ccc(Cl)c(Cl)c1)NCCCCCN1CCC(NC(=O)Nc2ccc(OC(F)F)cc2)CC1', 'Solute carrier family 2, facilitated glucose transporter member 1 (Homo sapiens)', 'inhibition', -1.59),
  ('N#Cc1cccc(/C=C/C(=O)NC2CCC(CCN3CCc4ccc(-c5cnccn5)cc4CC3)CC2)c1 (stereo unspecified)', 'Solute carrier family 2, facilitated glucose transporter member 1 (Homo sapiens)', 'inhibition', 7.94),
  ('O=C(Nc1ccc(Cl)cc1Cl)N[C@H]1CCN(CCCCCNC(=O)C2CC2c2ccc(Cl)c(Cl)c2)C1 (stereo partly specified)', 'Solute carrier family 2, facilitated glucose transporter member 1 (Homo sapiens)', 'inhibition', 3.75);

Suppose we examine the compound "COc1cc2nc(N(C)C)nc(Nc3ccc(OCc4ccccc4)cc3)c2cc1OC" ; what inhibition value has been reported?
0.24

# query: inhibition of entry "FC(F)(F)c1cccc(-c2cc(NCCCn3ccnc3)nc(-c3ccncc3)n2)c1"
-3.57

# input compound: "CC(C)N1CCN(c2ccc(OCCCN3CCN(c4cccc(Cl)c4Cl)CC3)c(C(F)(F)F)c2)CC1" ; wanted: its inhibition
2.24

Sample O=C1CC(C(=O)Nc2cccc(-c3cccc(-c4nc5ccccc5[nH]4)c3)c2)c2ccccc2N1 (stereo unspecified) — what was its inhibition?
7.77

Request the reported inhibition associated with "COc1cc2c(cc1NC(=O)CN1CCN(C(=O)c3ccco3)CC1)oc1ccccc12"
4.29

inhibition lookup needed for "COc1ccccc1CNc1ccnc(N2CC(Oc3ccc(F)cc3)C2)n1" , thanks.
-2.09

GET /values?readout=inhibition&item= "O=C(Nc1nc(-c2ccccn2)cs1)c1ccc(Br)s1"
-1.89

// lookup inhibition for Cc1cc(O)c2c3c1C(=O)C=C1C3c3c(c(O)cc(O)c3C(=O)C1(C)C)C2=O (stereo unspecified)
-4.69

Fill blank: measured inhibition of the compound CCCC(C)c1cnc2nc(N)nc(N)c2c1C (stereo unspecified) is ____.
3.61

Consider the compound shown here: "CN(C)CCCNc1nccc(N(C)c2ccc(NC(=O)Nc3cc(C(F)(F)F)ccc3F)cc2)n1" What is its recorded inhibition?
1.93

###

- TARGET UNDER TEST: Solute carrier family 2, facilitated glucose transporter member 1 (Homo sapiens)
- ASSAY PROCEDURE: ST_JUDE_LEISH: Cytotoxicity at 2uM final concentration against transgenic Leishmania Mexicana promastigotes LmGLUT1 that are glucose transport deficient and complemented with the human glucose transporter GLUT1. Activity is measured by DNA content using SYBR green in vitro
- Format: functional
Each entry below lists one item and its recorded inhibition value.
Hi! Could you send only the number? It should be in %, unit omitted.

INSERT INTO assay_data (molecule, attribute_measured, value) VALUES
  ('COc1cc(OC)c(NC(=O)Nc2ccnc3ccccc23)cc1Cl', 'inhibition', 9.23),
  ('Cc1cccc2nc(-c3ccc(-c4ccc(CNCc5ccccc5)cc4)s3)[nH]c12', 'inhibition', 8.05),
  ('COc1ccc2nccc([C@@H](O)CN3CCC(NC(=O)C(c4cc5ccccc5o4)N4CCC(Cc5ccccc5)CC4)CC3)c2c1 (some centres undefined)', 'inhibition', 5.02);

Sample CC1CCCC(NCc2c(O)ccc3ccccc23)C1 (centres undefined) — what was its inhibition?
3.58

Need inhibition, item "COc1ccc2nccc([C@@H](O)CN3CCC(NC(=O)c4cccc(C(=O)c5ccccc5)c4)CC3)c2c1"
-1.15

Given Cc1cccc(CN2CCCC3(CCN(Cc4ccccc4O)C3)C2)c1 (centres undefined) , state its recorded inhibition.
2.62

Any idea what inhibition was measured for "CCCNc1nc(NCc2c(C)cccc2C)nc(NC(C)(C)C)n1" ?
6.93

Quick one: inhibition of "CCCCNC(=O)c1cc(CNC2CCCCC2)ccc1-c1cccc(CNCc2ccc(-c3ccccc3)cc2)c1" ?
5.94

So what's the measured inhibition for this one? "NS(=O)(=O)c1cccc(-c2ccc3nccc(-c4cccc(S(N)(=O)=O)c4)c3c2)c1"
2.86
